The following compounds are shown together with reported MDR1-MDCK efflux ratio values.
result.type: MDR1-MDCK efflux ratio

INSERT INTO results (compound, readout_value) VALUES
  ('COc1cc(C#N)ccc1Cn1ccnc1C(C)C', 2.82),
  ('O=C(CSCCc1ccncc1)Nc1ccccc1', 0.805),
  ('O=C1CN(C(=O)c2ccc(F)cc2)CCN1', 2.27),
  ('COc1ccc(OC[C@@H]2c3cc(OC)c(OC)cc3CCN2C(=O)c2cccc(Cl)c2)cc1', 1.25),
  ('CSc1ccc(-c2ccc3n(c2=O)C[C@@H]2CNC[C@H]3C2)cc1', 1.42),
  ('Cc1nc(Cn2ncc3ccccc3c2=O)cs1', 0.681),
  ('c1sc(NCC2CCCO2)nc1C12CC3CC(CC(C3)C1)C2 (configuration not stated)', 0.537),
  ('Cc1nsc(NCc2cncs2)n1', 0.684),
  ('Cc1nc(N2CCNCC2)c2cnn(C)c2n1', 15.3),
  ('NC(=O)Cn1cc(-c2ccc(F)cc2)cn1', 0.87),
  ('Cc1ccc(CCC(=O)Nc2nccc3sccc23)o1', 0.465),
  ('C=CC(=O)Nc1cccc(Nc2nc(Nc3ccc(OCCOC)cc3)ncc2F)c1', 3.94);

Data origin, for the record: the Biogen ADME set (Fang et al. 2023)
